assay: Plasma pharmacokinetics of ARRY-520; assay type: in vivo, human; conditions: human, plasma, intravenous, 1.8 mg/m^2, Tmax, Schedule 2, Cycle 1 Day 1, 1.8 mg/m^2 (N=2); median (min-max)
Measurement Kind: Tmax (h)

>>> value("CON(C)C(=O)N1N=C(c2cc(F)ccc2F)S[C@@]1(CCCN)c1ccccc1 [ARRY-520]")
1

====

assay: Plasma pharmacokinetics of ARRY-520; format: in vivo, human; settings: human, plasma, intravenous, 3.75 mg/m^2, MRT, Schedule 1, Cycle 1 Day 1, 3.75 mg/m^2 (N=1); median (min-max)
Measurement Kind: MRT (h)

>>> value("CON(C)C(=O)N1N=C(c2cc(F)ccc2F)S[C@@]1(CCCN)c1ccccc1")
127
